target: Myc/Max binding to DNA (Homo sapiens); assay: Electrophoretic mobility shift assay (EMSA) of Myc/Max binding to DNA; assay type: biochemical; details: EMSA, 100 uM test compound; read-out: Bound DNA (%) (100uM)
assayEndpoint: remaining activity at 100 µM (%)
Field: numeric (%). Do not append units.

Some entries whose results are on file:
1) CCc1ccc(Oc2c(-c3ccccc3O)n[nH]c2C(F)(F)F)cc1	20
2) CCc1ccc(Oc2c(-c3ccc(Nc4ccc(Cl)cc4)cc3O)n[nH]c2C(F)(F)F)cc1	40

Turning to the following compound.
remaining activity at 100 µM for CCc1ccc(Oc2c(-c3ccc(OCc4ccc(OC)cc4)cc3O)nn(C)c2C(F)(F)F)cc1 ?
98

---

remaining activity at 100 µM: recorded values
molecular target: Myc/Max binding to DNA (Homo sapiens, UniProt P01106); assay: Electrophoretic mobility shift assay (EMSA) of Myc/Max binding to DNA; assay type: biochemical; conditions: EMSA, 100 uM test compound; read-out: Bound DNA (%) (100uM)
Sequence (P01106 whole entry): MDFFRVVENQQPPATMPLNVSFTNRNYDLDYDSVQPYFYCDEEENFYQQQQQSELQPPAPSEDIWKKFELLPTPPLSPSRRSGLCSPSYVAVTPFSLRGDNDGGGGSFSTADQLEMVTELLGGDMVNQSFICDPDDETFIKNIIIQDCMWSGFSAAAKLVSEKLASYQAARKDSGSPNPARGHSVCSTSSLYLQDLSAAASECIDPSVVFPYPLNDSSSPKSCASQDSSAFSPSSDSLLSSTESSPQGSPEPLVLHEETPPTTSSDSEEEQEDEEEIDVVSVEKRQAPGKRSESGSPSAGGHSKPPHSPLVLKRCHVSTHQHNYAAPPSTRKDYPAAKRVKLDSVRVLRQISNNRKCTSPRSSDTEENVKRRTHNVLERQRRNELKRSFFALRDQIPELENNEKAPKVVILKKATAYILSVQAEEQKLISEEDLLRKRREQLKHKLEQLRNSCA
State the answer as a number, implicitly in %.

Consider the reported remaining activity at 100 µM for these compounds:
1. Cn1nc(-c2ccc(OCc3ccc(Cl)cc3)cc2O)c(-c2ccc(F)c(C(F)(F)F)c2)c1C(F)(F)F	86
2. Cn1nc(-c2ccc(OCc3ccc(Cl)cc3)cc2O)c(-c2cccc(C(F)(F)F)c2)c1C(F)(F)F	62

Let us move to another entry and its remaining activity at 100 µM.
Request the reported remaining activity at 100 µM associated with Oc1cc(Nc2ccc(-n3ccnc3)cc2)ccc1-c1cc(C(F)(F)F)[nH]n1
91

---

target: Myc/Max binding to DNA (Homo sapiens, UniProt P01106); assay: Electrophoretic mobility shift assay (EMSA) of Myc/Max binding to DNA; format: biochemical; settings: EMSA, 50 uM test compound; read-out: Bound DNA (%) (50uM)
Attribute: remaining activity at 50 µM
Include the unit after the number when you answer.

Past entries and their recorded results:
1. Cn1nc(-c2ccc(Nc3ccc(F)c(F)c3)cc2O)cc1C(F)(F)F	91%
2. Oc1cc(OCc2ccc(Cl)cc2)ccc1-c1cc(C(F)(F)F)nc(-c2ccc(F)cc2)n1	89%

Requested field: remaining activity at 50 µM. Item: Cn1nc(C(F)(F)F)c(-c2ccc(C(F)(F)F)cc2Cl)c1-c1ccc(OCc2ccc(Cl)cc2)cc1O
91%

What measured remaining activity at 50 µM goes with Oc1cc(OCc2ccc(Cl)cc2)ccc1-c1n[nH]c(C(F)(F)F)c1-c1ccc(Cl)c(C(F)(F)F)c1 ?
89%
